Biological target: Phospholipid hydroperoxide glutathione peroxidase GPX4 (Homo sapiens)
Assay: Primary qHTS Assay for Inhibitors of Recombinant Selenoprotein Glutathione Peroxidase 4 (GPX4) (AID 1845192); also: nearly all actives have a fitted effect of over 65% in size
Details: recombinant GPX4, GR-coupled NADPH fluorescence, 15 min; series mostly up to 50 µM
Description: Assay Provider: Elias S.J. Arner MD PhD. Department of Medical Biochemistry and Biophysics Karolinska Institutet, Solna, Stockholm, Sweden […] 6; Detection; Fluorescence; ViewLux microplate reader, excitation 340 nm and emission 450 nm. […] 8; Detection; Fluorescence; ViewLux microplate reader, excitation 340 nm and emission 450 nm. […] 6. Initial fluorescence readout (t=0) at 340/450 nm was measured using a ViewLux multimodal detector (PerkinElmer, Waltham, MA). […]
Results filed as inconclusive are left out. Activity calls are given as the source filed them. Calls follow the shape of the dose curve; as a rule, active = well fitted inhibition curve with a large enough effect; inconclusive = small, poorly fitted or top-dose-only effect; inactive = flat fitted curve, though single readings scatter.
API: response.call in YES for active, NO for inactive

**Q:** Recorded call for `CO[C@H]1C[C@@H]2CC[C@@H](C)[C@@](O)(O2)C(=O)C(=O)N2CCCC[C@H]2C(=O)O[C@H]([C@H](C)C[C@@H]2CC[C@@H](OC(=O)C(C)(CO)CO)[C@H](OC)C2)CC(=O)[C@H](C)/C=C(\C)[C@@H](O)[C@@H](OC)C(=O)[C@H](C)C[C@H](C)/C=C/C=C/C=C/1C` ?
**A:** NO

**Q:** Recorded call for O=S(=O)(O)CC(S)CS (stereo not given) ?
**A:** YES

**Q:** Recorded call for `Cc1ncc(C[n+]2csc(CCO)c2C)c(N)n1` ?
**A:** NO

**Q:** Recorded call for CC(C)(C)NCC(O)c1ccc(O)c(CO)n1 (stereo not given) ?
**A:** YES

**Q:** Recorded call for C=C(C)C1CC=C(C)CC1 (stereo not given) ?
**A:** NO

**Q:** Recorded call for `OCc1ccccc1` ?
**A:** NO

**Q:** Recorded call for `CN(C)c1ccc(C(=C2C=CC(=[N+](C)C)C=C2)c2c(O)c(S(=O)(=O)[O-])cc3cc(S(=O)(=O)O)ccc23)cc1` ?
**A:** NO

**Q:** Recorded call for CCC(C(=O)NC(N)=O)c1ccccc1 (stereo not given) ?
**A:** NO

**Q:** Recorded call for CS(=O)(=O)OCC(O)C(O)COS(C)(=O)=O (stereo not given) ?
**A:** NO

**Q:** Recorded call for `O=[N+]([O-])O[C@@H]1CO[C@H]2[C@@H]1OC[C@@H]2O` ?
**A:** NO
